# target_or_test_system: Human recombinant FGF-1 (Homo sapiens, UniProt P05230)
# Construct: Human recombinant FGF-1 consisting of 141 residues; purchased Peprotech; host or cells: E. coli
# Sequence (P05230 with tags, fused parts or gaps limits assumed): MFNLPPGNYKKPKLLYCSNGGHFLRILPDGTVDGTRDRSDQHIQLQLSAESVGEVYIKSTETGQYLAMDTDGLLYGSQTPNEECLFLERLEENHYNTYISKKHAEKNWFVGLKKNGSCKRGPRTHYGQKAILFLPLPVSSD
# protocol_text: STD-NMR initial growth rates (STD0) of trisaccharides in presence of FGF-1
# Assay type: binding
# test_settings: relative to largest anomeric STD0 of the compound (=100)
Lab note: anything with Relative STD0 H1-C below 90 is marked T; values at 90 or higher are marked F.

Data request: Hello, is Relative STD0 H1-C of the following molecule strictly smaller than 90? CC(C)O[C@H]1O[C@H](CO)[C@@H](O[C@@H]2O[C@@H](C(=O)O)[C@@H](O[C@H]3O[C@H](CO)[C@@H](O)[C@H](O)[C@H]3NS(=O)(=O)O)[C@H](O)[C@H]2OS(=O)(=O)O)[C@H](O)[C@H]1NS(=O)(=O)O
Data returned: T

Data request: Lab note: confirm whether the reported Relative STD0 H1-C for this molecule is below 90, equality not counting. molecule: CC(=O)N[C@H]1[C@@H](OC(C)C)O[C@H](CO)[C@@H](O[C@@H]2O[C@@H](C(=O)O)[C@@H](O[C@H]3O[C@H](CO)[C@@H](O)[C@H](O)[C@H]3NS(=O)(=O)O)[C@H](O)[C@H]2OS(=O)(=O)O)[C@@H]1O
Data returned: F

Data request: Field: below-cutoff. Rule: recorded Relative STD0 H1-C strictly less than 90. Subject: CC(=O)N[C@H]1[C@@H](OC(C)C)O[C@H](COS(=O)(=O)O)[C@@H](O[C@@H]2O[C@@H](C(=O)O)[C@@H](O[C@H]3O[C@H](COS(=O)(=O)O)[C@@H](O)[C@H](O)[C@H]3NS(=O)(=O)O)[C@H](O)[C@H]2OS(=O)(=O)O)[C@@H]1O
Data returned: T

Data request: Determine whether this molecule shows Relative STD0 H1-C lower than 90 (ties excluded): CC(=O)N[C@H]1[C@@H](OC(C)C)O[C@H](COS(=O)(=O)O)[C@@H](O[C@@H]2O[C@@H](C(=O)O)[C@@H](O[C@H]3O[C@H](CO)[C@@H](O)[C@H](O)[C@H]3NS(=O)(=O)O)[C@H](O)[C@H]2OS(=O)(=O)O)[C@@H]1O
Data returned: F

Data request: Quick check: does CC(C)O[C@H]1O[C@H](COS(=O)(=O)O)[C@@H](O[C@@H]2O[C@@H](C(=O)O)[C@@H](O[C@H]3O[C@H](COS(=O)(=O)O)[C@@H](O)[C@H](O)[C@H]3NS(=O)(=O)O)[C@H](O)[C@H]2OS(=O)(=O)O)[C@H](O)[C@H]1NS(=O)(=O)O have Relative STD0 H1-C under 90?
Data returned: F

Data request: Below 90 on Relative STD0 H1-C? Entry CC(=O)N[C@H]1[C@@H](OC(C)C)O[C@H](CO)[C@@H](O[C@@H]2O[C@@H](C(=O)O)[C@@H](O[C@H]3O[C@H](COS(=O)(=O)O)[C@@H](O)[C@H](O)[C@H]3NS(=O)(=O)O)[C@H](O)[C@H]2OS(=O)(=O)O)[C@@H]1O
Data returned: F

Data request: Find out if reported Relative STD0 H1-C for CC(C)O[C@H]1O[C@H](CO)[C@@H](O[C@@H]2O[C@@H](C(=O)O)[C@@H](O[C@H]3O[C@H](COS(=O)(=O)O)[C@@H](O)[C@H](O)[C@H]3NS(=O)(=O)O)[C@H](O)[C@H]2OS(=O)(=O)O)[C@H](O)[C@H]1NS(=O)(=O)O is less than 90
Data returned: T

* * *

# target_or_test_system: Human recombinant FGF-1 (Homo sapiens, UniProt P05230)
# Construct: Human recombinant FGF-1 consisting of 141 residues; purchased Peprotech; host or cells: E. coli
# protocol_text: STD-NMR initial growth rates (STD0) of trisaccharides in presence of FGF-1
# Assay type: binding
# test_settings: anomeric proton of ring B; 600 MHz, 289 K; protein 19 µM, ligand 1.6 mM
parameter_measured: STD0 H1-B
Would you mind answering with just the numeric figure?

Data request: Give recorded STD0 H1-B with Human recombinant FGF-1 (Homo sapiens, UniProt P05230) for the following compound: CC(C)O[C@H]1O[C@H](CO)[C@@H](O[C@@H]2O[C@@H](C(=O)O)[C@@H](O[C@H]3O[C@H](COS(=O)(=O)O)[C@@H](O)[C@H](O)[C@H]3NS(=O)(=O)O)[C@H](O)[C@H]2OS(=O)(=O)O)[C@H](O)[C@H]1NS(=O)(=O)O
Data returned: 0.06

Data request: # query: STD0 H1-B | item CC(=O)N[C@H]1[C@@H](OC(C)C)O[C@H](CO)[C@@H](O[C@@H]2O[C@@H](C(=O)O)[C@@H](O[C@H]3O[C@H](COS(=O)(=O)O)[C@@H](O)[C@H](O)[C@H]3NS(=O)(=O)O)[C@H](O)[C@H]2OS(=O)(=O)O)[C@@H]1O | system: Human recombinant FGF-1 (Homo sapiens, UniProt P05230)
Data returned: 0.12

Data request: // lookup STD0 H1-B | system=Human recombinant FGF-1 (Homo sapiens, UniProt P05230) | key= CC(=O)N[C@H]1[C@@H](OC(C)C)O[C@H](COS(=O)(=O)O)[C@@H](O[C@@H]2O[C@@H](C(=O)O)[C@@H](O[C@H]3O[C@H](CO)[C@@H](O)[C@H](O)[C@H]3NS(=O)(=O)O)[C@H](O)[C@H]2OS(=O)(=O)O)[C@@H]1O
Data returned: 0.25

Data request: Lab note: need STD0 H1-B with Human recombinant FGF-1 (Homo sapiens, UniProt P05230) for entry CC(=O)N[C@H]1[C@@H](OC(C)C)O[C@H](CO)[C@@H](O[C@@H]2O[C@@H](C(=O)O)[C@@H](O[C@H]3O[C@H](CO)[C@@H](O)[C@H](O)[C@H]3NS(=O)(=O)O)[C@H](O)[C@H]2OS(=O)(=O)O)[C@@H]1O , please look it up.
Data returned: 0.18

* * *

# target_or_test_system: Human recombinant FGF-1 (Homo sapiens)
# Construct: Human recombinant FGF-1 consisting of 141 residues; purchased Peprotech; host or cells: E. coli
# protocol_text: STD-NMR initial growth rates (STD0) of trisaccharides in presence of FGF-1
# Assay type: binding
# test_settings: anomeric proton of ring C; 600 MHz, 289 K; protein 19 µM, ligand 1.6 mM
parameter_measured: STD0 H1-C

Data request: Query: STD0 H1-C; subject: CC(=O)N[C@H]1[C@@H](OC(C)C)O[C@H](CO)[C@@H](O[C@@H]2O[C@@H](C(=O)O)[C@@H](O[C@H]3O[C@H](CO)[C@@H](O)[C@H](O)[C@H]3NS(=O)(=O)O)[C@H](O)[C@H]2OS(=O)(=O)O)[C@@H]1O
Data returned: 0.19

Data request: Bench note: what STD0 H1-C did CC(=O)N[C@H]1[C@@H](OC(C)C)O[C@H](COS(=O)(=O)O)[C@@H](O[C@@H]2O[C@@H](C(=O)O)[C@@H](O[C@H]3O[C@H](CO)[C@@H](O)[C@H](O)[C@H]3NS(=O)(=O)O)[C@H](O)[C@H]2OS(=O)(=O)O)[C@@H]1O show?
Data returned: 0.24

Data request: Could you tell me which STD0 H1-C is on file for CC(C)O[C@H]1O[C@H](COS(=O)(=O)O)[C@@H](O[C@@H]2O[C@@H](C(=O)O)[C@@H](O[C@H]3O[C@H](CO)[C@@H](O)[C@H](O)[C@H]3NS(=O)(=O)O)[C@H](O)[C@H]2OS(=O)(=O)O)[C@H](O)[C@H]1NS(=O)(=O)O ?
Data returned: 0.20

Data request: Field request: STD0 H1-C | item: CC(=O)N[C@H]1[C@@H](OC(C)C)O[C@H](COS(=O)(=O)O)[C@@H](O[C@@H]2O[C@@H](C(=O)O)[C@@H](O[C@H]3O[C@H](COS(=O)(=O)O)[C@@H](O)[C@H](O)[C@H]3NS(=O)(=O)O)[C@H](O)[C@H]2OS(=O)(=O)O)[C@@H]1O
Data returned: 0.24

* * *

# target_or_test_system: WGA (Wheat Germen Agglutinin)
# protocol_text: T1sel validation assay: binding of GlcNAc to WGA
# test_settings: T1sel method; lectin 20 uM; preliminary assay
parameter_measured: Kd (µM)
// return numeric value only (unit: µM, not printed)

Data request: What value of measured Kd is listed for CC(=O)N[C@H]1C(O)O[C@H](CO)[C@@H](O)[C@@H]1O (stereo partly shown) [GlcNAc] ?
Data returned: 2100

* * *

# target_or_test_system: Human recombinant FGF-1 (Homo sapiens, UniProt P05230)
# Construct: Human recombinant FGF-1 consisting of 141 residues; purchased Peprotech; host or cells: E. coli
# protocol_text: STD-NMR initial growth rates (STD0) of trisaccharides in presence of FGF-1
# Type: binding
# test_settings: anomeric proton of ring A; 600 MHz, 289 K; protein 19 µM, ligand 1.6 mM
Kindly state STD0 H1-A for each of the entries shown.
Answer with a bare number; do not write a unit.

Data request: Which STD0 H1-A reading was recorded for the compound CC(C)O[C@H]1O[C@H](CO)[C@@H](O[C@@H]2O[C@@H](C(=O)O)[C@@H](O[C@H]3O[C@H](CO)[C@@H](O)[C@H](O)[C@H]3NS(=O)(=O)O)[C@H](O)[C@H]2OS(=O)(=O)O)[C@H](O)[C@H]1NS(=O)(=O)O ?
Data returned: 0.18

Data request: Could you tell me which STD0 H1-A is on file for CC(=O)N[C@H]1[C@@H](OC(C)C)O[C@H](COS(=O)(=O)O)[C@@H](O[C@@H]2O[C@@H](C(=O)O)[C@@H](O[C@H]3O[C@H](CO)[C@@H](O)[C@H](O)[C@H]3NS(=O)(=O)O)[C@H](O)[C@H]2OS(=O)(=O)O)[C@@H]1O ?
Data returned: 0.17

Data request: What measured STD0 H1-A goes with CC(C)O[C@H]1O[C@H](COS(=O)(=O)O)[C@@H](O[C@@H]2O[C@@H](C(=O)O)[C@@H](O[C@H]3O[C@H](COS(=O)(=O)O)[C@@H](O)[C@H](O)[C@H]3NS(=O)(=O)O)[C@H](O)[C@H]2OS(=O)(=O)O)[C@H](O)[C@H]1NS(=O)(=O)O ?
Data returned: 0.28

Data request: Can you share its STD0 H1-A? I mean this compound: CC(=O)N[C@H]1[C@@H](OC(C)C)O[C@H](CO)[C@@H](O[C@@H]2O[C@@H](C(=O)O)[C@@H](O[C@H]3O[C@H](COS(=O)(=O)O)[C@@H](O)[C@H](O)[C@H]3NS(=O)(=O)O)[C@H](O)[C@H]2OS(=O)(=O)O)[C@@H]1O
Data returned: 0.08

Data request: Record request: STD0 H1-A value, item CC(C)O[C@H]1O[C@H](COS(=O)(=O)O)[C@@H](O[C@@H]2O[C@@H](C(=O)O)[C@@H](O[C@H]3O[C@H](CO)[C@@H](O)[C@H](O)[C@H]3NS(=O)(=O)O)[C@H](O)[C@H]2OS(=O)(=O)O)[C@H](O)[C@H]1NS(=O)(=O)O
Data returned: 0.17
